- Test system: Zika virus NS2B-NS3 protease (unlinked complex)
- Experiment Description: Primary screen GU Rhodamine qHTS for Zika virus inhibitors: Unlinked NS2B-NS3 protease assay (AID 1347159); also: nearly all actives have a fitted effect of over 60% in size
- Test Parameters: Recombinant ZIKV NS2B-NS3 protease, Rhodamine110 substrate fluorescence; series mostly up to 107 µM
Inconclusive results are not listed. The source made the active and inactive calls. Calls follow the shape of the dose curve; as a rule, active = well fitted inhibition curve with a large enough effect; inconclusive = small, poorly fitted or top-dose-only effect; inactive = no such curve, though single readings can be large or run the other way.
Outcome codes: Y = active, N = inactive

{"columns": ["Molecule", "Answer Label"],
 "data": [
  ["CC(=O)C12OC(C)(C)OC1CC1C3CCC4=CC(=O)C=CC4(C)C3(F)C(O)CC12C (stereo unspecified)", "N"],
  ["COc1cc(OC)cc(C(=O)Nc2ccc(Cl)c(-c3nc4ccc(N(C)C)cc4[nH]3)c2)c1", "N"],
  ["C#CCN(Cc1cc2c(=O)[nH]c(C)nc2cc1Br)c1ccc(C(=O)NCc2cccnc2)cc1", "Y"],
  ["COC(=O)C12C(=O)C(C)=C(O)C1(C)C(C)=CC1C3(CO)CCC(O)C(C)(C)C3CCC12C (stereo unspecified)", "N"],
  ["C[C@@H]1O[C@@H](O[C@H]2[C@H](O)[C@@H](O)[C@H](OC3CCC4(C)C5CCC(C)(C(CO)OC6OC(CO)C(O)C(O)C6O)CC5=CCC4C3(C)C)O[C@@H]2CO)[C@H](O)[C@H](O)[C@H]1O (stereo partly specified)", "N"],
  ["CC1(C)CC[C@]2(C(=O)O)CC[C@]3(C)C(=CCC4[C@@]5(C)CC[C@H](O[C@@H]6O[C@H](CO)[C@@H](O)[C@H](O)[C@H]6O[C@@H]6O[C@H](CO)[C@@H](O)[C@H](O)[C@H]6O)[C@@](C)(CO)C5CC[C@]43C)[C@@H]2C1 (stereo partly specified)", "N"]
]}
